- System: 362531-283-R-J2-PDC complex spheroid viability
- Test Description: Anticancer human tumor 362531-283-R-J2-PDC patient-derived colon adenocarcinoma cell line growth inhibition [RAS]
- Protocol Conditions: second compound 0.000949 µM; first compound 0.0949 µM; stronger effect = lower value
Endpoint: viability, T/C (%)
Write it as a number; the unit % goes unstated.

// below: answered molecules
INSERT INTO assay_data (molecule, readout_value) VALUES
  ('CCc1c2c(nc3ccc(O)cc13)-c1cc3c(c(=O)n1C2)COC(=O)[C@]3(O)CC + CCn1c(-c2cccnc2C(C)OC)c2c3cc(ccc31)N1CCOC(CC(NC(=O)C(C(C)C)N(C)C(=O)C3(F)CCN(C(=O)C#CC(C)(C)N(C)C)CC3)C(=O)N3CCCC(N3)C(=O)OCC(C)(C)C2)C1', 32.9),
  ('CC1(C)CCC(Nc2ncc(C(F)(F)F)c(-c3c[nH]c4c(P(C)(C)=O)c(C#N)ccc34)n2)CN1 (centres undefined) + CCn1c(-c2cccnc2C(C)OC)c2c3cc(ccc31)N1CCOC(CC(NC(=O)C(C(C)C)N(C)C(=O)C3(F)CCN(C(=O)C#CC(C)(C)N(C)C)CC3)C(=O)N3CCCC(N3)C(=O)OCC(C)(C)C2)C1', 108),
  ('CC1(C)CCC(Nc2ncc(C(F)(F)F)c(-c3c[nH]c4c(P(C)(C)=O)c(C#N)ccc34)n2)CN1 (centres undefined) + CCn1c(-c2cc(N3CCN(C)CC3)cnc2C(C)OC)c2c3cc(ccc31)-c1csc(n1)CC(NC(=O)C1CC1C)C(=O)N1CCCC(N1)C(=O)OCC(C)(C)C2', 93);

Next item in the queue.
The reported value for CCc1c2c(nc3ccc(O)cc13)-c1cc3c(c(=O)n1C2)COC(=O)[C@]3(O)CC + CCn1c(-c2cc(N3CCN(C)CC3)cnc2C(C)OC)c2c3cc(ccc31)-c1csc(n1)CC(NC(=O)C1CC1C)C(=O)N1CCCC(N1)C(=O)OCC(C)(C)C2 in terms of viability, T/C is 26.2

====

- System: 362531-283-R-J2-PDC complex spheroid viability
- Test Description: Anticancer human tumor 362531-283-R-J2-PDC cell line growth inhibition [RAS];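 also: spheroids exposed to the agents for 7 days before readout; luminescence viability as percent of DMSO vehicle control wells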
- Protocol Conditions: second compound 0.3 µM; first compound 0.3 µM; stronger effect = lower value
Endpoint: viability, T/C (%)
Expressed in %, but write only the number.

Sample answers from the record:
INSERT INTO measurements (compound, endpoint, display_unit, readout_value) VALUES
  ('CC1(C)CCC(Nc2ncc(C(F)(F)F)c(-c3c[nH]c4c(P(C)(C)=O)c(C#N)ccc34)n2)CN1 (centres undefined) + CCn1c(-c2cc(N3CCN(C)CC3)cnc2C(C)OC)c2c3cc(ccc31)-c1csc(n1)CC(NC(=O)C1CC1C)C(=O)N1CCCC(N1)C(=O)OCC(C)(C)C2', 'viability, T/C', '%', 76.8),
  ('CC1(C)CCC(Nc2ncc(C(F)(F)F)c(-c3c[nH]c4c(P(C)(C)=O)c(C#N)ccc34)n2)CN1 (centres undefined) + CCn1c(-c2cccnc2C(C)OC)c2c3cc(ccc31)N1CCOC(CC(NC(=O)C(C(C)C)N(C)C(=O)C3(F)CCN(C(=O)C#CC(C)(C)N(C)C)CC3)C(=O)N3CCCC(N3)C(=O)OCC(C)(C)C2)C1', 'viability, T/C', '%', 94.9),
  ('CCc1c2c(nc3ccc(O)cc13)-c1cc3c(c(=O)n1C2)COC(=O)[C@]3(O)CC + CCn1c(-c2cccnc2C(C)OC)c2c3cc(ccc31)N1CCOC(CC(NC(=O)C(C(C)C)N(C)C(=O)C3(F)CCN(C(=O)C#CC(C)(C)N(C)C)CC3)C(=O)N3CCCC(N3)C(=O)OCC(C)(C)C2)C1', 'viability, T/C', '%', 13.3);

# ---- query compound ----
Looking up CCc1c2c(nc3ccc(O)cc13)-c1cc3c(c(=O)n1C2)COC(=O)[C@]3(O)CC + CCn1c(-c2cc(N3CCN(C)CC3)cnc2C(C)OC)c2c3cc(ccc31)-c1csc(n1)CC(NC(=O)C1CC1C)C(=O)N1CCCC(N1)C(=O)OCC(C)(C)C2 , I found its viability, T/C recorded as 2.69
